system: SF-268 CNS; assay: NCI tumour cell line growth inhibition, 48 h
readout-kind: TGI

- CC(=O)O[C@H]1CC[C@@]2(C)C(=CC[C@@H]3[C@@H]2CC[C@]2(C)C(=N/O)/C(=C/c4ccc([N+](=O)[O-])cc4)C[C@@H]32)C1: > 100 µM
- O=C(/C=C(\Nc1ccccc1O)c1ccccc1)C(=O)NC12CC3CC(CC(C3)C1)C2: > 10 µM
- COc1ccc2c(c1)nc1n2C(c2c(F)cccc2Cl)SC1 (stereo not given): 90.6 µM
- Cc1ccc(S(=O)(=O)Oc2ccc(OS(=O)(=O)c3ccc(C)cc3)c3c2C(=O)c2ccccc2C3=O)cc1: > 100 µM
- CCOC(=O)c1cc(C2CCN(Cc3ccccc3)C2=O)c(C(=O)C(=[N+]=[N-])C(C)=O)[nH]1 (stereo not given): > 100 µM

These measurements were taken from PubChem BioAssay (NCI).
